- Assay target: Adrenergic receptor alpha (Rattus norvegicus) (UniProt P15823+P23944+P43140+P22086+P19328+P22909)
- Test details: Irreversible inhibition of alpha adrenergic receptor in rat vas deferens assessed as inhibition of NE-induced contractions at 2 x 10' -5 M after 30 mins relative to N1,N1'-(2,2'-disulfanediylbis(ethane-2,1-diyl))dioctane-1,8-diamine tetrahydrochloride
- Type: tissue-based
Label rule, in plain words: inhibition of 40% and up is Fulfilled, under 40% is Not fulfilled.

Look over these answered cases.
>>> class_assignment("NCCCCCNCCSSCCNCCCCCN")
"Not fulfilled"
>>> class_assignment("Cc1ccccc1CNCCCCCCNCCSSCCNCCCCCCNCc1ccccc1C")
"Fulfilled"
>>> class_assignment("COc1ccc(CNCCCCCCNCCSSCCNCCCCCCNCc2ccc(OC)cc2)cc1")
"Fulfilled"

--- query ---
Determine whether measured inhibition meets or exceeds 40% for `Oc1ccc(CNCCCCCCNCCSSCCNCCCCCCNCc2ccc(O)c(O)c2)cc1O`
Fulfilled

====

- Assay target: Adrenergic receptor alpha (Rattus norvegicus) (UniProt P15823+P23944+P43140+P22086+P19328+P22909)
- Test details: Irreversible inhibition of alpha adrenergic receptor in rat vas deferens assessed as inhibition of NE-induced contractions at 2 x 10' -5 M after 30 mins relative to N1,N1'-(2,2'-disulfanediylbis(ethane-2,1-diyl))dioctane-1,8-diamine tetrahydrochloride
- Assay type: tissue-based
Property label: inhibition (%)
Just the number please, in %, no unit attached.

Previously resolved entries follow.
>>> test_result("COc1ccccc1CNCCCCCCCNCCSSCCNCCCCCCCNCc1ccccc1OC")
71
>>> test_result("COc1ccc(OC)c(CNCCCCCCNCCSSCCNCCCCCCNCc2cc(OC)ccc2OC)c1")
76
>>> test_result("c1ccc(CNCCCCCCCNCCSSCCNCCCCCCCNCc2ccccc2)cc1")
58
>>> test_result("CCOc1ccccc1CNCCCCCCNCCSSCCNCCCCCCNCc1ccccc1OCC")
81
>>> test_result("Cc1ccccc1CNCCCCCCCNCCSSCCNCCCCCCCNCc1ccccc1C")
56

`CN(CCCCCCCCN)CCSSCCN(C)CCCCCCCCN` yielded inhibition of 90

`COc1ccccc1CNCCCCCCN(C)CCSSCCN(C)CCCCCCNCc1ccccc1OC` yielded inhibition of 48

`NCCCCCCCCCNCCSSCCNCCCCCCCCCN` yielded inhibition of 92

`Clc1ccccc1CNCCCCCCCNCCSSCCNCCCCCCCNCc1ccccc1Cl` yielded inhibition of 36

`COc1cccc(CNCCCCCCNCCSSCCNCCCCCCNCc2cccc(OC)c2)c1` yielded inhibition of 72

`NCCCCCCCCCCNCCSSCCNCCCCCCCCCCN` yielded inhibition of 56
